- SYSTEM_TESTED: SARS-CoV-2 Main Protease (SARS-CoV-2) (UniProt P0DTD1)
- SETUP_CONDITIONS: 20.0 µM
Can you tell me inhibition for the items I'm about to list?
Answers are plain numbers, in %.

Example cases with answers are listed next.
I'm curious: which inhibition was measured for O=C(O)CNC(=O)c1ncc(-c2cccc(Cl)c2)cc1O tested on SARS-CoV-2 Main Protease (SARS-CoV-2) (UniProt P0DTD1)? 1.43

Now consider N#CCCCOC(=O)c1cccc2c1NC(=O)C2=O and answer again. -3.65

Request: N#Cc1ccc(O)c(NC(=O)Cc2cccnc2)c1 -15.4

Okay, here is my list. What is inhibition for each of these?
1. O=[N+]([O-])c1cnc(Sc2nccc(-c3cccnc3)n2)s1
2. O=C(Cc1cccnc1Cl)Nc1cccc(OCCc2ccccc2)c1
3. Cc1ccn2cnnc2c1NC(=O)C1CCOc2ccccc21 (stereo unspecified)
4. O=C(NCc1cccnn1)Nc1cccc(OCCN2CCOCC2)c1
5. O=C(NCc1ccc(Cl)cc1CN1CCN(C(=O)CCl)CC1)[C@@H]1CCCOC1 (stereo in doubt)
6. Cn1cc(NC(=O)NCCc2ccc(Cl)cc2)c2ccccc2c1=O
7. O=C(c1cc(=O)[nH]c2ccccc12)N1CCN(Cc2ccccc2)CC1
8. CC(C)Cn1cc(NC(=O)NCCc2c[nH]c3ccccc23)c2ccccc2c1=O

[9.63, 1.54, -11.2, 1.16, 56.7, -6.47, 74.5, 1.66]
